Target: cAMP and cAMP-inhibited cGMP 3',5'-cyclic phosphodiesterase 10A (Homo sapiens, UniProt Q9Y233)
Sequence (Q9Y233 whole entry): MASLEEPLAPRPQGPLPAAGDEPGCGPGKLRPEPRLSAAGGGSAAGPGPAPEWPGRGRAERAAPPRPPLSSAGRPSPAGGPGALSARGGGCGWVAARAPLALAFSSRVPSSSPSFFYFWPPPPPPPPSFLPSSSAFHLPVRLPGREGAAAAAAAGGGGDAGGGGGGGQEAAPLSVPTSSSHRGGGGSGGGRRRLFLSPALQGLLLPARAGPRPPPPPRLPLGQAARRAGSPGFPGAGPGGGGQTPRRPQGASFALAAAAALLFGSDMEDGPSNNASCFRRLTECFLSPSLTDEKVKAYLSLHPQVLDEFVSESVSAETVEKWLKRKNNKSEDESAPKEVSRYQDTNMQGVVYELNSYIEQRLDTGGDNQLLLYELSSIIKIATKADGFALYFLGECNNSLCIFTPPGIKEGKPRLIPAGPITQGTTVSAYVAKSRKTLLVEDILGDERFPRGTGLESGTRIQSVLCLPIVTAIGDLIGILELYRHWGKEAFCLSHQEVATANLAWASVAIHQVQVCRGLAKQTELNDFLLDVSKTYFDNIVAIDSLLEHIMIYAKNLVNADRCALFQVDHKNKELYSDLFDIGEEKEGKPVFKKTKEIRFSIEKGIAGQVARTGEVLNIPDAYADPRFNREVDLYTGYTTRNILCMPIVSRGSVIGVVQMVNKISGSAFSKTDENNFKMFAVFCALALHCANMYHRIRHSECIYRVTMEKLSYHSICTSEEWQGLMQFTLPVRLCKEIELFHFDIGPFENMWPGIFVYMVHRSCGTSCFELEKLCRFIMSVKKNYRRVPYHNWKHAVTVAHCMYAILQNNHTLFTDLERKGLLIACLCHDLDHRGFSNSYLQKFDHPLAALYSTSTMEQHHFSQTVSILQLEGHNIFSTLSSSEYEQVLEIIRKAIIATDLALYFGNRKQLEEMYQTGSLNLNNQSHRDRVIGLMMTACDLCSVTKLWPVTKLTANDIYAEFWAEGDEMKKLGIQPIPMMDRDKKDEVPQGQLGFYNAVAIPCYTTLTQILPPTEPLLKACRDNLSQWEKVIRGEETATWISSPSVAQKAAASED
pIC50: −log10 of the molar value.
resultType: pIC50

# example entries with known answers
{"itemSmiles": "COc1cc(OC)nc(N2CCN(C(=O)c3nc(-c4ccc(OC)c5nc(C(F)(F)F)ccc45)oc3CN)CC2)n1", "measured": 6.12}
{"itemSmiles": "COc1ccc(-c2nc(C(=O)N3CCN(S(=O)(=O)N(C)C)CC3)c(CN)o2)c2ccc(C(F)(F)F)nc12", "measured": 5.77}
{"itemSmiles": "COc1ccc(-c2nc(C(=O)N3CCC(O)(c4ccccc4)CC3)c(CN)o2)c2ccc(C(F)(F)F)nc12", "measured": 6.22}
{"itemSmiles": "COc1ccc(-c2nc(C(=O)N3CCC4(CC3)C(=O)NCN4c3ccccc3)c(CN)o2)c2ccc(C(F)(F)F)nc12", "measured": 7.70}

[I] COc1ccc(-c2nc(C(=O)N3CC[C@@H](NC(=O)OC(C)(C)C)C3)c(CN)o2)c2ccc(C(F)(F)F)nc12
[II] COc1ccc(-c2nc(C(=O)N3CCN(C(=O)OC(C)(C)C)CC3)c(CN)o2)c2ccc(C(F)(F)F)nc12
[III] COc1ccc(-c2nc(C(N)=O)c(CN)o2)c2ccc(C(F)(F)F)nc12
[IV] COc1ccc(-c2nc(C(=O)N3CCN(c4ncccn4)CC3)c(CN)o2)c2ccc(C(F)(F)F)nc12
Prompt line: Ordering criterion: pIC50; begin with the maximum. Please reply with the labels ordered as requested. Many thanks.
Response line: I, IV, II, III
(I: 6.89, IV: 6.37, II: 5.96, III: 5.55)
